Origin of the recorded values: patent US20240400689A1

Listing of entries alongside the reported EC50.
Assay system: T1, human CD276 protein (human, UniProt Q5ZPR3 29-534)
T1 construct: whole, on cells; for SKOV3 and the other cancer lines the protein is the cells' own; also called B7-H3; B7H3
T1 sequence (looked up): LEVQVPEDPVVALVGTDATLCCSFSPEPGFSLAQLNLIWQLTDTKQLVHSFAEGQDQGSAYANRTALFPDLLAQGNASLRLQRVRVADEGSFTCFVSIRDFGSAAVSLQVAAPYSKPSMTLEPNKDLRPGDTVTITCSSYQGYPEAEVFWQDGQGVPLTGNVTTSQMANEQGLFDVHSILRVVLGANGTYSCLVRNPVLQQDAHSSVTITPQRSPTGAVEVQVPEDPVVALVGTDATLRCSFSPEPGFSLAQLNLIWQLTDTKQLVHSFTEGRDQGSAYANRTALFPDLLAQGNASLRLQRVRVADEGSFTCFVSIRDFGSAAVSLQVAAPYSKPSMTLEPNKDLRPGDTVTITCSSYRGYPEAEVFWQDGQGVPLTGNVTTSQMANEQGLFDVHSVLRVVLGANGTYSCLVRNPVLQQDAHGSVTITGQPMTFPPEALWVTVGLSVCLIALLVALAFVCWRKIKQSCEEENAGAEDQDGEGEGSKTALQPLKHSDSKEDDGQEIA
Method description: FACS on SKOV3 cells
Hi! Could you send only the number? It should be in µg/mL, unit omitted.

binder="6-D8-E7-A11 (human IgG1 chimeric antibody) (antibody, V domains shown, human IgG1 chimeric antibody of the mouse clone) VH: QVHLQQPGAELVKPGASVKLSCKASGYTFTNYWMHWVKRRPGQGLEWIGMIHPNSGTTSFNEKFKSKATLTVDKSSSTAYMQLSSLTSEDSAVYYCAGYYGSSFSWFTYWGQGTLVTVSA VL: QAVVTQESALTTSPGGTVILTCRSSTGAVTTSNFANWVQEKPDHLFTGLIGGTSNRAPGVPVRFSGSLIGDKAALTITGAQTEDDAMYFCALWYSTHYVFGGGTKVTVL" reading_unit=µg/mL result_number=0.402

Continue with the next binder.
Answer with reported EC50 of 13-E4-G9-A4 (human IgG1 chimeric antibody) (antibody, V domains shown, human IgG1 chimeric antibody of the mouse clone) VH: EVMLVESGGGLVKPGGSLKFSCAASGFTFITYAMSWVRQTPEKRLEWVATISGGGIDTYYPDSVKGRFTISRDNAKNTLYLQVNSLRSEDTAMYYCTRQGSQGWGAMDYWGQGTSVTVSS VL: QIVLTQSPPIMSASPGERVTMTCRASSRVSFMHWYQQKSGTSPRRWIYETSKLASGVPDRFSGSVSGTSYSLTISSMEAEDAATYYCQQWSSNPLTFGAGTKLELK
1.77
